- protocol_notes: NCI Yeast Anticancer Drug Screen. Data for the rad50 strain (AID 155)
- measurement_setup: S. cerevisiae rad50 strain growth inhibition; at 5.0 µM (retest, dose inferred, filed as 0.5); stronger effect = higher value
The panel holds about 79,000 compounds, 15% with a hit somewhere; the sample as a whole holds those more often.
Each record gets a class by growth inhibition: lower range (below 8%), middle range (8% to below 40%), upper range (40% or more)

Look over these answered cases.
molecule	assigned_class
COc1cc(-c2ccc(-[n+]3nc(-c4ccc([N+](=O)[O-])cc4)nn3-c3ccc([N+](=O)[O-])cc3)c(OC)c2)ccc1-[n+]1nc(-c2ccc([N+](=O)[O-])cc2)nn1-c1ccc([N+](=O)[O-])cc1	upper range
C=CCO/N=C/c1cc(NC(=S)c2ccoc2C)ccc1Cl	middle range
COc1ccc(C(OCC2OC(n3ccc(NC(=O)c4ccccc4)nc3=O)C(O)C2O)(c2ccccc2)c2ccccc2)cc1 (stereo not given)	upper range
CC(C)(C)CC(C)(C)c1ccc(OCCOCCSC(=N)N)cc1	lower range
CCCCCCCCc1cc(Cl)c(O)c(Cl)c1	lower range

Input: Consider Cc1cc(O)c2c(c1)C(=O)C(c1c(C)cc3c(c1O)C(=O)C1OC1C3=O)=CC2=O (stereo not given) . To which growth inhibition class does it belong?
Output: upper range

Input: Into which category would you place `O=C(/C=C/c1ccccc1)c1ccccc1O` ?
Output: middle range

Input: Sort `CC1=NN(c2ccccc2)C(=O)C1(Br)Br` into one of the categories.
Output: middle range

###

- protocol_notes: NCI Yeast Anticancer Drug Screen. Data for the mlh1 rad18 strain (AID 175)
- measurement_setup: S. cerevisiae mlh1 rad18 strain growth inhibition; at 50.0 µM (retest, dose inferred, filed as 5.0)
The panel holds about 79,000 compounds, 15% with a hit somewhere; the sample as a whole holds those more often. Calls of active or inactive are those of the source. No stated cut-off is given here; in the data, active means growth inhibition above about 70%; inactive means the rest.
Result category, one only: Yes = active, No = inactive

Known results for molecules:
molecule	assigned_class
CCCCCCCCCCCC[n+]1ccc(CCCCCCCCC)cc1	Yes
Cc1cc(C(=O)c2ccccc2Cl)ccc1O	Yes
CC1(O)CCCCCC1	Yes

Input: Look up the recorded call for `C/C(=N\NC(=S)N1CC2CCC(CC2)C1)c1ccccn1` in this test.
Output: No

Input: Recorded test call requested for C=C1C(=O)OC2CC3(C)CCCC(C)C3=CC12 (stereo unspecified)
Output: No

Input: Which outcome did this test record for the molecule `CC(=O)Nc1ccc(C(=O)CCl)cc1` ?
Output: Yes

###

- protocol_notes: NCI Yeast Anticancer Drug Screen. Data for the bub3 strain (AID 167)
- measurement_setup: S. cerevisiae bub3 mutant strain, at 50.0 µM
- Description: Growth inhibition of yeast strains with defined genetic alterations is measured as a screen for potential anti-cancer activity. Selected strains with alterations in DNA damage repair or cell cycle control were exposed to compounds and growth inhibition was measured relative to vehicle treated controls. The strain used in this assay is bub3
This is part of a sample that, as a whole, favours compounds with a hit. Of some 79,000 tested, about 15% had one in any assay. The source made the active and inactive calls. No stated cut-off is given here; in the data, active means growth inhibition above about 70%; inactive means the rest.
Your reply should match one of these outcome classes. True (active), False (inactive)

compound	assigned_class
CC1CC(C)(C)OB(OC(C)CC(C)(C)OB2OC(C)CC(C)(C)O2)O1 (configuration not stated)	False

Input: Recorded test call requested for `Cc1cc(C(=C2C=CC(=Nc3ccccc3)C=C2)c2ccc(Nc3ccccc3)cc2)ccc1N`
Output: True

Input: Identify the outcome logged in this assay for the compound shown: OC(c1cc(-c2ccc(Cl)cc2)nc2c(Cl)cccc12)C1CCCCN1 (configuration not stated)
Output: True

Input: How did this test come out for `Oc1ccc(Cl)cc1Cc1cc(Cl)ccc1O` ?
Output: False

Input: I'd appreciate the recorded outcome for `NNc1cccc([N+](=O)[O-])c1` from this test.
Output: True

Input: Record lookup: outcome of this test for `CN(C)c1ccc(C(C#N)(c2ccccc2)c2ccc(N(C)C)cc2)cc1` ?
Output: True

Input: # fetch the recorded call for `O=C1/C(=C\c2ccc([N+](=O)[O-])cc2)CS(=O)(=O)C/C1=C/c1ccc([N+](=O)[O-])cc1` here
Output: True

Input: So what was the verdict on O=[N+]([O-])CC(O)c1ccccc1 (configuration not stated) in this test?
Output: False

Input: Kindly provide the recorded test outcome for the following compound: `Oc1ccc(Br)cc1Sc1cc(Br)ccc1O`
Output: True

Input: Name the outcome recorded for `N#C/C(=N\Nc1ccc(Cl)cc1)C(=O)C1CC1` in the assay.
Output: True

Input: Outcome logged for `Cn1c(COC(=O)NC2CCCCC2)c(COC(=O)NC2CCCCC2)c2ccc3cc(Cl)c(Cl)cc3c21` in this assay:
Output: True

Input: // outcome(item) with item = `Cc1nn(CCO)c(C)c1N=[N+]([O-])c1c(C)nn(CCO)c1C`
Output: True

Input: What did this assay record as the result for `OC(Cc1cc(CC(O)(C(F)(F)F)C(F)(F)F)nc(CC(O)(C(F)(F)F)C(F)(F)F)c1)(C(F)(F)F)C(F)(F)F` ?
Output: True

Input: Please let me know the test result on file for `O=C(O)/C=C(/Oc1ccc(Cl)cc1Cl)C(=O)O` .
Output: False

Input: What did the test return for CCCCCCCCCCCC[n+]1ccccc1 (tested in a mixture with another compound) ?
Output: True
